Biological target: RARα (Homo sapiens)
Sequence (P10276 183-417 limits assumed): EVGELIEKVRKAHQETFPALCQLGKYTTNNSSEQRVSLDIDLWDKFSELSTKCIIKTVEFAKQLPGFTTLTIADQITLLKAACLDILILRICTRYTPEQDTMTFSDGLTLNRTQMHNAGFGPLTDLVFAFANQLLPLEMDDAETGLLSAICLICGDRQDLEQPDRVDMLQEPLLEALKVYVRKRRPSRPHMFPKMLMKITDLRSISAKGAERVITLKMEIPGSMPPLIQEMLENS
Assay: chimeric receptor transactivation assay, RARα
Type: cell-based
Conditions: value in brackets
Description: Assays described below measure the ability of a compound to bind to, and/or activate various retinoid receptor subtypes. When in these assays a compound binds to a given receptor subtype and activates the transcription of a reporter gene through that subtype, then the compound is considered an agonist of that receptor subtype. […]
endpoint: RAR α (EFFICACY)

Field: example entries. Status: answers known.
- C#Cc1cc(C(=O)Oc2ccc(CC(=O)OCOC(C)=O)c(F)c2)cc2c1OC(C)(C)CC2(C)C [Compound 5]: 10
- C#Cc1cc(C(=O)Oc2ccc(CC(=O)O)c(F)c2)cc2c1OC(C)(C)CC2(C)C [Compound 4]: 20
- C#Cc1cc(C#Cc2ccc(CC(=O)O)cc2)cc2c1OC(C)(C)CC2(C)C [Compound 40]: 15

Next item in the queue.
Query string: Which RAR α (EFFICACY) is listed for C#Cc1cc(C#Cc2ccc(CC(=O)O)c(F)c2)cc2c1OC(C)(C)CC2(C)C [Compound 41] ?
Result string: 10

// provenance: patent US7351737B2
